Task for the reader: assign each of the following molecules its reported Kd.
- assayTarget: UniProt:Q13451
- Sequence (Q13451 whole entry): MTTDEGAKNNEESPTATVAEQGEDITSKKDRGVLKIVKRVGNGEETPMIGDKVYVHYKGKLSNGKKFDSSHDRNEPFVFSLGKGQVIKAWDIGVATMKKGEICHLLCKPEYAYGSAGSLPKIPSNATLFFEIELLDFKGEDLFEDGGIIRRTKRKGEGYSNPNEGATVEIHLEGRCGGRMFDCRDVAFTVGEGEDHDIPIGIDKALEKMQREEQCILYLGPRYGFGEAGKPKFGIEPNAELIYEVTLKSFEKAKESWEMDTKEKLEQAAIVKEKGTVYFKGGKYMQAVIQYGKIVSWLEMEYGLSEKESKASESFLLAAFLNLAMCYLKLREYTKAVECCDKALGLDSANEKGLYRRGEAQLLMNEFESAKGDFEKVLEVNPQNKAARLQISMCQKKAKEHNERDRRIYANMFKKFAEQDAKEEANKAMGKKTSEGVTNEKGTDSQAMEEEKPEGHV
// return the numeric value with its unit appended

Example entries begin here.
{"givenSmiles": "c1c[nH]cn1", "Kd": "4.4 mM"}
{"givenSmiles": "Cc1c[nH]cn1", "Kd": "2.9 mM"}

I need Kd for every entry listed below, if you could help.
1. O=C1CCCCN1
2. Oc1ccccn1

Found:
1. 2.8 mM
2. 1.3 mM

Data origin, for the record: ChEMBL document CHEMBL4602734
